Test system: DND-41
measurementDescription: selective drug sensitivity score (sDSS, relative to normal bone marrow) (sDSS (score)); higher = more potent and effective on the cell line relative to normal bone marrow cells
protocolConditions: 72 h
testReadout: selective drug sensitivity score
Give bare numbers.

Study these solved cases before continuing.
compound: COc1cc(OC2CCN(C)CC2)ccc1Nc1ncc2c(n1)n(C1CCCC1)c(=O)n2C [AZ3146] (top concentration 10000 nM)
assayedSystem: DND-41
selective drug sensitivity score: 0.24
--
compound: CC(=O)c1cnc2ccc(-c3cc(Cl)c(O)c(Cl)c3)nc2c1N[C@H]1CC[C@H](CN(C)C)CC1 [OTS167] (top concentration 1000 nM)
assayedSystem: DND-41
selective drug sensitivity score: -1.12
--
compound: COCC1(CO)C(=O)C2CCN1CC2 (stereo unspecified) [APR-246] (top concentration 10000 nM)
assayedSystem: DND-41;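 also: ALL cell lines in 384-well plates, five doses spanning 10,000-fold, each plate scaled between vehicle and 100 µmol/L benzalkonium chloride controls, sDSS an adapted area-under-curve metric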
selective drug sensitivity score: -1.16

Provide selective drug sensitivity score values for the following items, in order.
1. Cc1ccc(NC(=O)c2ccc(CN3CC[C@H](N(C)C)C3)c(C(F)(F)F)c2)cc1Nc1nccc(-c2cncnc2)n1 [Bafetinib] (top concentration 1000 nM)
2. Cn1c(=O)n(-c2ccc(C(C)(C)C#N)cc2)c2c3cc(-c4cnc5ccccc5c4)ccc3ncc21 [Dactolisib] (top concentration 1000 nM)
3. CCNC(=O)c1noc(-c2cc(C(C)C)c(O)cc2O)c1-c1ccc(CN2CCOCC2)cc1 [Luminespib] (top concentration 1000 nM)

Data returned:
1. 1
2. 5.66
3. -2

Sourced from the supplement of paper PMC8967900
